Each recorded value in this set is attributed to ChEMBL document CHEMBL4270599.

System: SK-OV-3
Assay: Growth inhibition of human SKOV3 cells assessed as cell growth at 10^-7 M incubated for 48 hrs by sulforhodamine B assay relative to control
Type: functional
Conditions: SK-OV-3, 48 h, read-out: Activity
measure: growth at 0.1 µM (%)
Unit % implied. Number only.

[
  {
    "molSmiles": "C#C[C@@]1(O)[C@@H](CO)O[C@@H](n2ccc3c(N)ncnc32)[C@@H]1O",
    "testTarget": "SK-OV-3",
    "growth at 0.1 µM, %": 92
  }
]

# evaluate next
Identify the measured growth at 0.1 µM of `C#C[C@@]1(O)[C@@H](CO)O[C@@H](n2cc(F)c3c(N)ncnc32)[C@@H]1O` for SK-OV-3.
81
